- Experiment notes: RP TLC on unimpregnated RP-2 control plate
- Assay type: physicochemical
- Conditions used: Rf value from unimpregnated RP plate (control); mobile phase pH 7.4
Result type: CRP

Molecule	Result type	Recorded number
CC[C@@H](C(N)=O)N1CCCC1=O	CRP	0.92
O=C(c1ccccc1)c1ccc2n1CCC2C(=O)O (centres unmarked)	CRP	0.96
NC(=O)N1c2ccccc2CC(=O)c2ccccc21 [oxcarbamazepine]	CRP	0.91
CCOC(=O)C1=C(C)NC(C)=C(C(=O)OC)C1c1cccc([N+](=O)[O-])c1 (centres unmarked)	CRP	0.86
CN(C)CCC=C1c2ccccc2CCc2ccccc21	CRP	0.67
